Tested on: S. aureus JE2 (USA300)
Measurement notes: Broth microdilution MIC/MBC, S. aureus
Assay type: cell-based, Staphylococcus aureus
Run parameters: value in parentheses
Below, each entry is listed alongside its reported MBC S. aureus JE2 (USA300).
Lab book: enter the figure in µM, no units written.

Here is how some molecules turned out for MBC S. aureus JE2 (USA300).
1. CC(=O)NC1C([S][Au][PH](C)(C)C)OC(CO)C(O)C1O (stereo not shown) = 0.5
2. CC[PH](CC)(CC)[Au][S]c1ccccc1N = 0.6
3. CC(=O)OCC1O[C@@H]([S][Au-][P+](C)(C)C)C(OC(C)=O)[C@@H](OC(C)=O)[C@@H]1OC(C)=O (stereo partly shown) = 0.2

--- query ---
Documented MBC S. aureus JE2 (USA300) of CC[P+](CC)(CC)[Au-][S][C@@H]1OC(CO)[C@@H](O)[C@H](O)C1NC(C)=O (stereo partly shown) : 0.05

###

Tested on: S. aureus JE2 (USA300)
Measurement notes: Broth microdilution MIC/MBC, S. aureus
Format: cell-based, Staphylococcus aureus
Run parameters: value before the parentheses; two values = two repeats
A collection of compounds and their measured MIC S. aureus JE2 (USA300)

1. CC[PH](CC)(CC)[Au][S][C@@H]1O[C@H](COC(C)=O)[C@@H](OC(C)=O)[C@H](OC(C)=O)[C@H]1OC(C)=O [Compound 1, reference compound] = 0.04 µM
2. CC(=O)OCC1O[C@@H]([S][Au-][P+](c2ccc(C(F)(F)F)cc2)(c2ccc(C(F)(F)F)cc2)c2ccc(C(F)(F)F)cc2)C(OC(C)=O)[C@@H](OC(C)=O)[C@@H]1OC(C)=O (some centres unmarked) = 4 µM
3. CC[P+](CC)(CC)[Au-][S]CC(F)(F)F = 0.009 µM
4. CC[PH](CC)(CC)[Au][S]C1OC(CO)C(O)C(O)C1O (centres unmarked) = 0.02 µM
5. C[PH](C)(C)[Au][S]C1OC(CO)C(O)C(O)C1O (centres unmarked) = 0.3 µM
6. CC(=O)NC1C([S][Au][PH](C)(C)C)OC(CO)C(O)C1O (centres unmarked) = 0.5 µM
7. CCCC[P+](CCCC)(CCCC)[Au-][S][C@@H]1OC(COC(C)=O)[C@@H](OC(C)=O)[C@H](OC(C)=O)C1OC(C)=O (some centres unmarked) = 3 µM

# ---- query compound ----
MIC S. aureus JE2 (USA300) reported for this compound CC[P+](CC)(CC)[Au-][S][C@@H]1OC(CO)[C@@H](O)[C@H](O)C1NC(C)=O (some centres unmarked) : 0.02 µM

###

Test system: E. coli ATCC 25922
Measurement notes: Broth microdilution MIC/MBC, E. coli
Type: cell-based, Escherichia coli
Run parameters: value in parentheses
Flag rule - MBC E. coli ATCC 25922 less than 10 µM flags yes; the remaining entries get no.

1) CC[PH](CC)(CC)[Au][S]C1OC(CO)C(O)C(O)C1O (stereo not shown) [Compound 10] = no
2) CC[P+](CC)(CC)[Au-][S]CC(=O)OC [Compound 22] = no
3) CC[PH](CC)(CC)[Au][S]c1ccc(N)cc1 [Compound 17] = yes
4) CC[PH](CC)(CC)[Au][O]C1OC(CO)C(OC2OC(CO)C(O)C(O)C2O)C(O)C1O (stereo not shown) [Compound 13] = no
5) CC[P+](CC)(CC)[Au-][S]CC(F)(F)F [Compound 23] = no
6) CC[P+](CC)(CC)[Au-][S][C@@H]1OC(CO)[C@@H](O)[C@H](O)C1NC(C)=O (stereo partly shown) [Compound 12] = yes
7) CC[PH](CC)(CC)[Au][S][C@@H]1O[C@H](COC(C)=O)[C@@H](OC(C)=O)[C@H](OC(C)=O)[C@H]1OC(C)=O [Compound 1, reference compound] = no
8) CC[PH](CC)(CC)[Au][S]C1OC(CO)C(O)C(O)C1O (stereo not shown) [Compound 11] = no

Problem: Find out if reported MBC E. coli ATCC 25922 for CP(C)C.[Cl][Au] [Compound 24, (Trimethylphosphine)gold Chloride] is less than 10 µM
Result: yes

Problem: Identify whether the compound CC[PH](CC)(CC)[Au][S]c1ccccc1 [Compound 15] records MBC E. coli ATCC 25922 below 10 µM.
Result: no

Problem: Please indicate whether the reported MBC E. coli ATCC 25922 of CC(=O)NC1C([S][Au][PH](C)(C)C)OC(CO)C(O)C1O (stereo not shown) [Compound 39] is strictly below 10 µM.
Result: no

Problem: Please check: MBC E. coli ATCC 25922 for CC[PH](CC)(CC)[Au][S]C1OC(CO)C(OC2OC(CO)C(O)C(O)C2O)C(O)C1O (stereo not shown) [Compound 14] , strictly under 10 µM or not?
Result: no

Problem: Quick check: does C[PH](C)(C)[Au][S]C1OC(CO)C(O)C(O)C1O (stereo not shown) [Compound 37] have MBC E. coli ATCC 25922 under 10 µM?
Result: yes

Problem: Could you please tell me whether MBC E. coli ATCC 25922 recorded for CC[PH](CC)(CC)[Au][S]c1ccccc1N [Compound 16] is less than 10 µM?
Result: no

Problem: Please let me know if CC(=O)OCC1O[C@@H]([S][Au-][P+](C)(C)C)C(OC(C)=O)[C@@H](OC(C)=O)[C@@H]1OC(C)=O (stereo partly shown) [Compound 31] shows MBC E. coli ATCC 25922 below 10 µM.
Result: yes

Problem: Report whether reported MBC E. coli ATCC 25922 is lower than 10 µM (strictly) for C[PH](C)(C)[Au][S]C1OC(CO)C(O)C(O)C1O (stereo not shown) [Compound 38]
Result: yes

Problem: Quick check: MBC E. coli ATCC 25922 of CCP(CC)CC.[Au+].[Cl-] [Compound 25, (Triethylphosphine)gold Chloride] under 10 µM?
Result: no

Problem: I wonder whether C[PH](C)(C)[Au][S]CCO [Compound 40] has MBC E. coli ATCC 25922 below 10 µM. Can you tell?
Result: no
